Source listed as BindingDB's records for doi:10.1016/j.bmc.2013.02.056.

Target: UniProtKB P31650
Assay: Inhibition of mouse GAT3 expressed in HEK cells assessed as inhibition of [3H]-GABA uptake after 25 mins by liquid scintillation counting analysis
Observed Property: IC50 (µM)

Sample answers from the record:
O=C(O)C1CCCN(CCO/C=C\c2cc(F)ccc2Cc2cccc(F)c2)C1 (centres undefined) :: 20
O=C(c1cccc(F)c1)c1ccc(F)cc1/C=C/OCCN1CCCC(C(=O)O)C1 (centres undefined) :: 339
O=C(O)C1CCCN(CCO/C=C\c2ccc(F)cc2Cc2ccccc2F)C1 (centres undefined) :: 19.5
O=C(c1ccccc1F)c1cc(F)ccc1/C=C/OCCN1CCCC(C(=O)O)C1 (centres undefined) :: 372

(1) O=C(O)C1CCCN(CCO/C=C\c2cc(F)ccc2Cc2ccc(F)cc2)C1 (centres undefined)
(2) O=C(O)[C@@H]1CCCN(CCC=C(c2ccccc2)c2ccccc2)C1
Identify the entry with the smaller IC50: 1 or 2 . Please identify the chosen entry by its label.
1
(1: 50.1 µM, 2: 195 µM)

* * *

Target: Sodium- and chloride-dependent GABA transporter 2 (Mus musculus, UniProt P31649)
Sequence (P31649 whole entry): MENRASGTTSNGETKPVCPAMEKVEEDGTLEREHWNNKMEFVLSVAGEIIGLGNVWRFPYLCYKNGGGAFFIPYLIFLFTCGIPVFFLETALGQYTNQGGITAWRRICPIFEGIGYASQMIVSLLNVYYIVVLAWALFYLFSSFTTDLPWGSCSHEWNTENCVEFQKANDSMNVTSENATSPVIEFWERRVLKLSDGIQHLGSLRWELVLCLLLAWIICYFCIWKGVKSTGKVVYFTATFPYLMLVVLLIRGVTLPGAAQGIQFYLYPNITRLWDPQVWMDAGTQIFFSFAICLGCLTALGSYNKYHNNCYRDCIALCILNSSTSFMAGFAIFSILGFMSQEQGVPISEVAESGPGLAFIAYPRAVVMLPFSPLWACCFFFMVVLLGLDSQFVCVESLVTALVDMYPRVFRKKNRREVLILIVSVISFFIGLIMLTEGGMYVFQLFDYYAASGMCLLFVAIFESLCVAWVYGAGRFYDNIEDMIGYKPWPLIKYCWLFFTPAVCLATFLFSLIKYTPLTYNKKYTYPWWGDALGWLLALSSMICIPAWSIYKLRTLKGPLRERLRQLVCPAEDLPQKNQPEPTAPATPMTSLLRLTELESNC
Test: Inhibition of mouse GAT2 expressed in HEK cells assessed as inhibition of [3H]-GABA uptake after 25 mins by liquid scintillation counting analysis
pIC50: −log10 of the molar value.
Observed Property: pIC50

Sample answers from the record:
O=C(c1ccccc1F)c1cc(F)ccc1/C=C/OCCN1CCCC(C(=O)O)C1 (stereo not given) :: 3.85
O=C(O)C1CCCN(CCO/C=C\c2cc(F)ccc2Cc2ccc(F)cc2)C1 (stereo not given) :: 4.04

(P) O=C(c1cccc(F)c1)c1ccc(F)cc1/C=C/OCCN1CCCC(C(=O)O)C1 (stereo not given)
(Q) O=C(O)[C@@H]1CCCN(CCC=C(c2ccccc2)c2ccccc2)C1
Identify the entry with the smaller pIC50: P or Q . Please identify the chosen entry by its label.
Q
(Q: 3.43, P: 4.22)

* * *

Target: Sodium- and chloride-dependent GABA transporter 3 (Mus musculus, UniProt P31650)
Sequence (P31650 whole entry): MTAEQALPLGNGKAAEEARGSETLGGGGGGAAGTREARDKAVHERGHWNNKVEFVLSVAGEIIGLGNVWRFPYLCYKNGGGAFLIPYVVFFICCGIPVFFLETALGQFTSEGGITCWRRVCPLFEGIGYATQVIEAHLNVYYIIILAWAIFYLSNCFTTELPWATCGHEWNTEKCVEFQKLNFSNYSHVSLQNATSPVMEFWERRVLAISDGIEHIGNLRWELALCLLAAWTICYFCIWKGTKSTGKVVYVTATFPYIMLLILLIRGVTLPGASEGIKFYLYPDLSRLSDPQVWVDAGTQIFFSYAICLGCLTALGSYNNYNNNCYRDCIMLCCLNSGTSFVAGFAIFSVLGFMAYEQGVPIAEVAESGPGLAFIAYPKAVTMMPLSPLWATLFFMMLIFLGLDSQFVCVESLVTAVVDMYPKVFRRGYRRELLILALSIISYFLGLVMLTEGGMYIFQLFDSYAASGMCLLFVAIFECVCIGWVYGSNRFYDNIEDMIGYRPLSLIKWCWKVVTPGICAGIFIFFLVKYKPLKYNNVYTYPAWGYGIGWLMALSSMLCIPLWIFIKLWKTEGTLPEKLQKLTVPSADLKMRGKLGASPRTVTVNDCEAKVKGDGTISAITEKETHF
Test: Inhibition of mouse GAT3 expressed in HEK cells assessed as inhibition of [3H]-GABA uptake after 25 mins by liquid scintillation counting analysis
Observed Property: IC50 (µM)

O=C(O)C1CCCN(CCO/C=C\c2ccc(F)cc2Cc2ccc(F)cc2)C1 (stereo not drawn) :: 34.7
O=C(O)C1CCCN(CCO/C=C\c2cc(F)ccc2Cc2ccccc2F)C1 (stereo not drawn) :: 28.2
O=C(O)C1CCCN(CCO/C=C/c2ccccc2Cc2ccccc2)C1 (stereo not drawn) :: 37.2
